experiment: Plasma concentration in Wistar rat plasma at 30 mg/kg, po at 2 hrs; assay type: ADME, organism-based; parameters: dose 30 mg/kg, route oral
readout: concentration at 2 h (µM)

INSERT INTO measurements (smiles, readout, val) VALUES
  ('FC(F)(F)Oc1ccc(-c2nnc(CCCCc3ccc4cccnc4n3)o2)cc1Cl', 'concentration at 2 h', 70),
  ('O=C(CCCc1ccc2cccnc2n1)NCc1cc(-c2ccc(F)c(C(F)(F)F)c2)no1', 'concentration at 2 h', 11.3);

====

target: 2-oxoglutarate receptor 1 (Homo sapiens); assay: Antagonist activity at human GPR99 receptor expressed in CHO-K1 cells co-expressing Galpha and Gqi5 G-protein assessed as inhibition of succinate-induced increase in intracellular calcium level at by FLIPR assay
Sequence (Q96P68 whole entry, looked up): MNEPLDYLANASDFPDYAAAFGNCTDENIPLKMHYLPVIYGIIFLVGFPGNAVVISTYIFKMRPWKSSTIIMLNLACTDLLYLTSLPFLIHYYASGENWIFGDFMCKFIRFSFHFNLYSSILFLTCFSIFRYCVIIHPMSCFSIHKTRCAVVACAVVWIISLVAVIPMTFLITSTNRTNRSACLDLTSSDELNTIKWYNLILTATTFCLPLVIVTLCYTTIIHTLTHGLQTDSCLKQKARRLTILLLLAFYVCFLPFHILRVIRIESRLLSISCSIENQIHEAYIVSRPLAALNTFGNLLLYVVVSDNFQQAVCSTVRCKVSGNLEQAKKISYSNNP
Below: a set of entries, each annotated with reported IC50.
readout: IC50

INSERT INTO measurements (smiles, val) VALUES
  ('FC(F)(F)c1cc(-c2nnc(CCCCc3ccc4cccnc4n3)o2)ccc1Cl', '> 30 µM'),
  ('FC(F)(F)Oc1ccc(-c2nnc(CCCCc3ccc4cccnc4n3)o2)cc1Cl', '> 20 µM'),
  ('Clc1cccc(-c2ccc(-c3nnc(CCCc4ccc5cccnc5n4)o3)cc2)c1', '5 µM'),
  ('O=C(CCCc1ccc2cccnc2n1)NCc1cc(-c2ccc(F)c(C(F)(F)F)c2)no1', '> 30 µM'),
  ('O=C(CCCc1ccc2cccnc2n1)NCc1ccc(-c2cccc(Cl)c2)cc1', '7 µM'),
  ('Cc1cccc(-c2ccc(CNC(=O)CCCc3ccc4cccnc4n3)cc2)c1', '> 30 µM'),
  ('C[C@H](NC(=O)CCCc1ccc2cccnc2n1)c1ccc(-c2cccc(Cl)c2)cc1', '2 µM'),
  ('C[C@H](NC(=O)Cc1ccc(-c2ccc3cccnc3n2)cc1)c1ccc(-c2ccc(F)c(C(F)(F)F)c2)cc1', '> 30 µM');
